Origin of the recorded values: ChEMBL document CHEMBL1147470

- assayed-target: Sphingosine 1-phosphate receptor 5 (Homo sapiens, UniProt Q9H228)
- Sequence (Q9H228 whole entry, looked up): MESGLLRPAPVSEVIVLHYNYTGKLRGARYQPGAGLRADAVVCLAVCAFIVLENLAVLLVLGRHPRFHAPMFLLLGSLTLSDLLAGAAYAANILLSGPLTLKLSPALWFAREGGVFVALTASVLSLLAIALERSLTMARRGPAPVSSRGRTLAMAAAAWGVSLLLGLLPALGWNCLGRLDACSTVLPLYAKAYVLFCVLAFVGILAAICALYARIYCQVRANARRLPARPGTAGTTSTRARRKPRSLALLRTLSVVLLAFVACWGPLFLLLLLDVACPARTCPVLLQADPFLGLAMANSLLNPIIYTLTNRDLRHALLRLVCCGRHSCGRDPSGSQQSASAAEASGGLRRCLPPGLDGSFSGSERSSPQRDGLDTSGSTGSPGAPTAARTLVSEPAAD
- protocol: Binding affinity to human sphingosine 1-phosphate receptor 5 expressed in CHO cells was determined by using [33P]-S1P as radioligand
Overview of recorded log10 IC50 for various compounds
quantity-kind: log10 IC50 (log10 of the value in nM)

{"compound": "CCCCCCCCCCCCCCC(N)CCP(=O)(O)O (stereo unspecified)", "log10 IC50": 2.92}
{"compound": "CCCCCCCc1ccc(CCCCNCCCP(=O)(O)O)cc1", "log10 IC50": 2.77}
{"compound": "CCCCCCCCCc1ccc(CNCCCC(=O)O)cc1", "log10 IC50": 2.30}
{"compound": "CCCCCCCCCc1ccc(CNCCCP(O)O)cc1", "log10 IC50": 2.15}
{"compound": "CCCCCCCCc1ccc(CC[C@@H](N)C[C@H](O)P(=O)(O)O)cc1", "log10 IC50": 0.65}
{"compound": "CCCCCCCCCc1ccc(CNCC(O)CC(=O)O)cc1 (stereo unspecified)", "log10 IC50": 1.82}

----------
- assayed-target: Sphingosine 1-phosphate receptor 3 (Homo sapiens)
- Sequence (Q99500 whole entry): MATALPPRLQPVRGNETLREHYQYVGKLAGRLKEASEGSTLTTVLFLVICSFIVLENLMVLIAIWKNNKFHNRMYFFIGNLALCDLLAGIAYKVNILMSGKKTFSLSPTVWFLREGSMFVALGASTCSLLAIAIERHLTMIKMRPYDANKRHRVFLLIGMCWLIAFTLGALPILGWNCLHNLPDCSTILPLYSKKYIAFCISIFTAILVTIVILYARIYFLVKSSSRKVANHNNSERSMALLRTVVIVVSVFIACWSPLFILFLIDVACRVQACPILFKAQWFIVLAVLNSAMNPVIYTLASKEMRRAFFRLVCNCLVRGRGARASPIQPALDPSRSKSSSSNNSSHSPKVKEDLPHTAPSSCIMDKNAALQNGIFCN
- protocol: Binding affinity to human sphingosine 1-phosphate receptor 3 expressed in CHO cells was determined by using [33P]-S1P as radioligand

{"compound": "CCCCCCCCCCCCNCCCP(=O)(O)O", "IC50, nM": 13}
{"compound": "CCCCCCCCCCCCC(N)CCP(=O)(O)O (stereo not drawn)", "IC50, nM": 40}
{"compound": "CCCCCCCCCc1ccc(CNCCCP(O)O)cc1", "IC50, nM": 1000}
{"compound": "CCCCCCCCCc1ccc(CNCC(F)CC(=O)O)cc1 (stereo not drawn)", "IC50, nM": 350}
{"compound": "CCCCCCCCc1ccc(CCNCCCP(=O)(O)O)cc1", "IC50, nM": 4.3}
{"compound": "CCCCCCCCCc1ccc(CNCCCC(=O)O)cc1", "IC50, nM": 1200}
{"compound": "CCCCCCCCCCCCCCCCCCC(N)CCP(=O)(O)O (stereo not drawn)", "IC50, nM": 130}
{"compound": "CCCCCCCCCc1ccc(CNCC(O)CC(=O)O)cc1 (stereo not drawn)", "IC50, nM": 170}
{"compound": "CCCCCCCCCCCCCNCCCP(=O)(O)O", "IC50, nM": 2.8}
{"compound": "CCCCCCCCCCCCCCC(N)CCP(=O)(O)O (stereo not drawn)", "IC50, nM": 14}
{"compound": "CCCCCCCCCc1ccc(CNCCCP(C)(=O)O)cc1", "IC50, nM": 170}
{"compound": "CCCCCCCCCCCCCCCNCCCP(=O)(O)O", "IC50, nM": 2.7}
{"compound": "O=P(O)(O)CCCNCCCCCCCCCCc1ccccc1", "IC50, nM": 0.91}
{"compound": "CCCCCCCCCCCCCCCC(N)CCP(=O)(O)O (stereo not drawn)", "IC50, nM": 47}
{"compound": "NC(CCCCCCCCCCc1ccccc1)CCP(=O)(O)O (stereo not drawn)", "IC50, nM": 2}
{"compound": "CCCCCCCc1ccc(CCCNCCCP(=O)(O)O)cc1", "IC50, nM": 14}
{"compound": "CCCCCCCCCCCCCCCCNCCCP(=O)(O)O", "IC50, nM": 15}
{"compound": "CCCCCCCCCc1ccc(CNCCC(F)(F)C(=O)O)cc1", "IC50, nM": 390}
{"compound": "CCCCCCCCc1ccc(CC[C@@H](N)C[C@H](O)P(=O)(O)O)cc1", "IC50, nM": 18}
{"compound": "CCCCCCCCCCCCCC(N)CCP(=O)(O)O (stereo not drawn)", "IC50, nM": 10}
{"compound": "CCCCCCCc1ccc(CCCCNCCCP(=O)(O)O)cc1", "IC50, nM": 1000}
{"compound": "CCCCCCCCCc1ccc(CNCCC(O)C(=O)O)cc1 (stereo not drawn)", "IC50, nM": 370}
{"compound": "CCCCCCCCCCCCCCNCCCP(=O)(O)O", "IC50, nM": 3.6}
